- test protocol: Static contact angle (wettability) of wax-coated surfaces, Attension Theta tensiometer
- Type: physicochemical
- Set-up: unit not given here
- cond: thermally-evaporated wax on Silicon substrate; liquid hexadecane
measured endpoint: C.A. hexadecane

// worked examples, C.A. hexadecane included
* CCCCCCCCCCCCCCCCCCCCCCCCCCCCCCCCCCCCCCCC | Fully wetted
* FC(F)(F)C(F)(F)C(F)(F)C(F)(F)C(F)(F)C(F)(F)C(F)(F)C(F)(F)C(F)(F)C(F)(F)C(F)(F)C(F)(F)C(F)(F)C(F)(F)C(F)(F)C(F)(F)C(F)(F)C(F)(F)C(F)(F)C(F)(F)C(F)(F)C(F)(F)C(F)(F)C(F)(F)F | 112
* FC(F)(F)C(F)(F)C(F)(F)C(F)(F)C(F)(F)C(F)(F)C(F)(F)C(F)(F)C(F)(F)C(F)(F)C(F)(F)C(F)(F)C(F)(F)C(F)(F)C(F)(F)C(F)(F)C(F)(F)C(F)(F)C(F)(F)C(F)(F)F [C20, perfluoroeicosane, reference compound] | Fully wetted
* CCCCCCCCCCCCCCCCCCCCCCCCCCCCCCCCCCCCCCCCCCCCCCCCCC | Fully wetted
* CCCCCCCCCCCCCCCCCCCCCCCCCCCCCCCCCCCC | Fully wetted

Switching to the query record.
Sure, the documented C.A. hexadecane for CCCCCCCCCCCCCCCCCCCCCCCCCCCCCCCCCCCCCCCCCCCC is Fully wetted

###

The following compounds are listed with their measured C.A. Ethylene Glycol values.
- test protocol: Static contact angle (wettability) of wax-coated surfaces, Attension Theta tensiometer
- Format: physicochemical
- Parameters: unit not given here
- cond: thermally-evaporated wax on Silicon substrate; liquid Ethylene Glycol
API doc: respond with a numeric literal and nothing else, no unit.

So for CCCCCCCCCCCCCCCCCCCCCCCCCCCCCCCCCCCCCCCCCCCCCCCCCC , the logged C.A. Ethylene Glycol turned out to be 100

Short answer for CCCCCCCCCCCCCCCCCCCCCCCCCCCCCCCCCCCCCCCC : C.A. Ethylene Glycol was 112

Measured C.A. Ethylene Glycol of FC(F)(F)C(F)(F)C(F)(F)C(F)(F)C(F)(F)C(F)(F)C(F)(F)C(F)(F)C(F)(F)C(F)(F)C(F)(F)C(F)(F)C(F)(F)C(F)(F)C(F)(F)C(F)(F)C(F)(F)C(F)(F)C(F)(F)C(F)(F)C(F)(F)C(F)(F)C(F)(F)C(F)(F)F : 171

###

Here, each record is paired with measured C.A. Water data.
- test protocol: Static contact angle (wettability) of wax-coated surfaces, Attension Theta tensiometer
- Type: physicochemical
- Parameters: unit not given here
- cond: thermally-evaporated wax on Silicon substrate; liquid Water
// keep it numeric: no unit symbol after the value

- FC(F)(F)C(F)(F)C(F)(F)C(F)(F)C(F)(F)C(F)(F)C(F)(F)C(F)(F)C(F)(F)C(F)(F)C(F)(F)C(F)(F)C(F)(F)C(F)(F)C(F)(F)C(F)(F)C(F)(F)C(F)(F)C(F)(F)C(F)(F)F [C20, perfluoroeicosane, reference compound]: 128
- CCCCCCCCCCCCCCCCCCCCCCCCCCCCCCCCCCCCCCCC: 167
- FC(F)(F)C(F)(F)C(F)(F)C(F)(F)C(F)(F)C(F)(F)C(F)(F)C(F)(F)C(F)(F)C(F)(F)C(F)(F)C(F)(F)C(F)(F)C(F)(F)C(F)(F)C(F)(F)C(F)(F)C(F)(F)C(F)(F)C(F)(F)C(F)(F)C(F)(F)C(F)(F)C(F)(F)F: 172
- CCCCCCCCCCCCCCCCCCCCCCCCCCCCCCCCCCCCCCCCCCCCCCCCCC: 151
- CCCCCCCCCCCCCCCCCCCCCCCCCCCCCCCCCCCC: 171

Now for the compound whose C.A. Water we want.
Lab note: measured C.A. Water of CCCCCCCCCCCCCCCCCCCCCCCCCCCCCCCCCCCCCCCCCCCC was 161
